Tested on: alkaline phosphatase of Bacillus badius TE3597
assay.details: Substrate specificity of the alkaline phosphatase of Bacillus badius TE3597
Type: biochemical
condition: substrate specificity; enzyme of Bacillus badius TE3597; p-nitrophenyl phosphate = 100
experimental.readout: Relative Activity

1) O=P(O)(O)OC1O[C@H](CO)[C@@H](O)[C@H](O)[C@H]1O (stereo partly drawn) [Glucose-1-phosphate] : 25.0
2) O=P(O)(O)OCC(O)CO (racemic) [DL-α-Glycerophosphate] : 67.0
3) O=P(O)(O)OC(CO)CO [β-Glycerophosphate] : 67.5
4) O=P(O)(O)OC[C@H]1OC(O)[C@H](O)[C@@H](O)[C@@H]1O (stereo partly drawn) [Glucose-6-phosphate] : 34.5

(1) NC(=O)c1ccc[n+]([C@@H]2O[C@H](COP(=O)([O-])OP(=O)(O)OC[C@H]3O[C@@H](n4cnc5c(N)ncnc54)[C@H](OP(=O)(O)O)[C@@H]3O)[C@@H](O)[C@H]2O)c1 [NADP]
(2) NCCOP(=O)(O)O [Phosphoethanolamine]
## Task Lab log: flag the item ( 1 or 2 ) with the smaller Relative Activity figure. Reply briefly: the label of your chosen item.
## Result 1
(1: 15.4, 2: 67.0)

====

Tested on: alkaline phosphatase of Bacillus badius TE3592
assay.details: Substrate specificity of the alkaline phosphatase of Bacillus badius TE3592
Assay type: biochemical
condition: substrate specificity; enzyme of Bacillus badius TE3592; p-nitrophenyl phosphate = 100
experimental.readout: Relative Activity

Some solved cases for reference:
1. NC(=O)c1ccc[n+]([C@@H]2O[C@H](COP(=O)([O-])OP(=O)(O)OC[C@H]3O[C@@H](n4cnc5c(N)ncnc54)[C@H](OP(=O)(O)O)[C@@H]3O)[C@@H](O)[C@H]2O)c1 [NADP] : 15.4
2. NCCOP(=O)(O)O [Phosphoethanolamine] : 44.4
3. O=P(O)(O)OCC(O)CO (racemic) [DL-α-Glycerophosphate] : 37.9
4. O=P(O)(O)OC1O[C@H](CO)[C@@H](O)[C@H](O)[C@H]1O (stereo partly drawn) [Glucose-1-phosphate] : 0

(A) O=P(O)(O)OC(CO)CO [β-Glycerophosphate]
(B) O=P(O)(O)OC[C@H]1OC(O)[C@H](O)[C@@H](O)[C@@H]1O (stereo partly drawn) [Glucose-6-phosphate]
## Task Lab log: flag the item ( A or B ) with the smaller Relative Activity figure. Reply briefly: the label of your chosen item.
## Result B

Numbers sourced from patent US5821061A.
